Measured composite z-score values are reported for all entries that follow.
Experiment: small-molecule microarray binders of probe aDKK1, primary screen, biochemical, biotinylated probe, 635/667 nm fluorescence (AID 1099);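 also: score merges 667nm spot fluorescence with signal to noise across triplicate slides; reference of the scale not given here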
Conditions: higher = more signal
Output: the number by itself.

Worked cases, composite z-score given:
>>> quantitativeresult("O=C1C2=CC[C@H]3C(=O)N(Cc4ccc5c(c4)OCO5)C(=O)[C@H]3[C@H]2[C@H](O)[C@@H]2O[C@H]12")
-0.141
>>> quantitativeresult("COc1ccc(O[C@H]2C=C[C@@H](c3ccccc3)O[C@@H]2CON=C[C@@H](C)[C@H](OCc2ccccc2)C(C)C)cc1")
-0.406
>>> quantitativeresult("CO[C@H]1COC(=O)[C@H](C)COC(=O)CC=C[C@@H](C)[C@H](OC)COC(=O)CC=C[C@@H]1C")
-0.466
>>> quantitativeresult("CC(C)=NOCc1ccc(-c2cc(-c3ccccc3)no2)cc1")
-0.285

QUERY: Assign composite z-score to the following record: `COc1ccc(-c2nc3c(c4c2C[C@H](C)OC4)CN(CCC(C)C)CC3)cc1`
RESULT: -0.0348

QUERY: Input `CC(C)=CCCC(C)=CCON=C1[C@H]2CCn3c(=O)n(C)c(=O)n3[C@H]2[C@H](O)[C@@H]2O[C@H]12` , output reported composite z-score.
RESULT: -0.317

QUERY: Name the recorded composite z-score of the item `COC(=O)CC=C[C@@H](C)[C@@H](C=NO[C@H](C)c1cn([C@@H]2COC[C@H]2O)nn1)OC` in your answer.
RESULT: -0.43

QUERY: Could you please provide reported composite z-score for `CC(=O)OC[C@H]1O[C@@H](ON=C[C@@H](C)[C@H](OCc2ccccc2)C(C)C)[C@H](OC(C)=O)[C@@H](OC(C)=O)[C@@H]1OC(C)=O` ? Thanks!
RESULT: 0.129

QUERY: For the compound `CCCCCCc1nc(CCCc2cc3c(c(CCCCCC)n2)[Si](C(C)C)(C(C)C)O[C@H]3c2ccccc2)cc2c1[Si](C(C)C)(C(C)C)O[C@H]2c1ccccc1` , report composite z-score.
RESULT: -0.259

QUERY: Dear colleague, please send me the reported composite z-score for `CCCC[C@H]1OB(O)C[C@H]2C1=C(C)C[C@H]1C(=O)N(C)C(=O)[C@H]12` when you can.
RESULT: -0.0166

QUERY: Item CCOc1ccc(N2C(=O)/C(=C/C=C/c3ccccc3OC)S(=O)(=O)C2c2cccc([N+](=O)[O-])c2)cc1 (stereo not given) : provide composite z-score
RESULT: 0.0757

QUERY: Check the records and state composite z-score for `COc1ccc([Si](C)(C)[C@H]2[C@H](CCO)O[C@@]3(C(=O)N(Cc4cccc(NC(=O)[C@H](C)O)c4)c4ccccc43)[C@@H]2C)cc1`
RESULT: -0.146

QUERY: Let me know recorded composite z-score for `COc1ccc(COC(=O)NN=C2C[C@@H](O)[C@@H](O)[C@@H]3[C@@H]4C(=O)N(Cc5ccc6c(c5)OCO6)C(=O)[C@@H]4CC[C@@H]23)cc1` , thanks.
RESULT: 0.911

QUERY: Return composite z-score for the following compound: `CC=CC1=C(CO)[C@H](O)[C@H]2O[C@H]2[C@H]1O`
RESULT: -0.346

QUERY: Input `CCOC(=O)CCN1C(=O)[C@H]2[C@H]3[C@H](O)[C@H](O)CC(=NNC(=O)OCc4ccc(OC)cc4)[C@@H]3CC[C@H]2C1=O` , output reported composite z-score.
RESULT: -0.0545
